Assay: Rat hepatocyte stability of D0, D6 and D8 5-MeO-DMT analogues
Format: in vitro ADME
Conditions: cryopreserved pooled rat hepatocytes, 0.5×10^6 viable cells/mL, 60 min; read-out: Qualified CLint (μL/min/10^6 cells)
testReadout: hepatocyte CLint at 1 μM (µL/min/1e6 cells)
# unit: µL/min/1e6 cells | format: bare number

# smilesData, displayUnit, hepatocyte CLint at 1 μM
records = [
    ("COc1ccc2[nH]cc(CCN(C)C)c2c1", "µL/min/1e6 cells", 312),
]

Turning now to a further compound:
Quick note, hepatocyte CLint at 1 μM for O=C(c1ccc(OCCN2CCCCC2)cc1)c1c(-c2ccc(O)cc2)sc2cc(O)ccc12 landed at 125
